# TARGET_OR_TEST_SYSTEM: Tubulin (Sus scrofa)
# PROTOCOL_TEXT: Inhibition of tubulin polymerization using porcine brain microtubule protein
pIC50: −log10 of the molar value.
// values below are reported pIC50

Below, 3 compounds whose answers are already recorded.
| LINE_NOTATION | pIC50 |
| --- | --- |
| COc1ccc(CON=C2c3ccccc3C(=O)c3ccccc32)cc1O | 5.84 |
| COc1ccc(CON=C2c3cccc(OC)c3C(=O)c3c(OC)cccc32)cc1O | < 5.00 |
| COc1ccc(CON=C2c3ccccc3C(=O)c3ccccc32)cc1 | 5.98 |

Form field: reported pIC50 of `COc1ccc(S(=O)(=O)ON=C2c3ccccc3C(=O)c3ccccc32)cc1`
< 5.00

Consider the compound shown here: `COc1ccc(C(=O)O/N=C2\c3cccc(Cl)c3C(=O)c3cccc(Cl)c32)cc1` What is its recorded pIC50?
< 5.00

Give its pIC50 value. Item: `COc1ccc(CO/N=C2\c3cccc(Cl)c3C(=O)c3cccc(Cl)c32)cc1`
< 5.00

What value of measured pIC50 is listed for `COc1ccc(CON=C2c3cccc(OC)c3C(=O)c3c(OC)cccc32)cc1` ?
< 5.00

Could you tell me which pIC50 is on file for `COc1ccc(C(=O)ON=C2c3ccccc3C(=O)c3ccccc32)cc1` ?
< 5.00

The reported measurements were obtained from ChEMBL document CHEMBL1208685.
